system_tested: Brd4 (S) (Homo sapiens, UniProt O60885)
Construct: endogenous in cells; host or cells: HEK293, HeLa
test_description: Time-dependent BET degradation, immunoblot, HeLa cells
Assay type: cell-based
Set-up: dose or concentration left out as unconfirmed
settings: timecourse 0-8 h
We begin with a simple list: items and their reported Dmax.
assay_readout: Dmax (%)

compound | system_tested | assay_readout | value_measured
CCCC(NC(=O)/C(C#N)=C/c1cccc(Br)n1)c1ccc(OCCOCCOCCOCCOCCOCCOCCNC(=O)c2ccc(-c3ccc4c(c3)[C@H](Nc3ccc(Cl)cc3)C[C@H](C)N4C(C)=O)cc2)cc1 (stereo partly drawn) [Example 05IB6] | Brd4 (S) (Homo sapiens, UniProt O60885) | Dmax | 100
CCCC(NC(=O)/C(C#N)=C/c1nc(Cl)ccc1Cl)c1ccc(OCCOCCOCCOCCOCCOCCOCCNC(=O)c2ccc(-c3ccc4c(c3)[C@H](Nc3ccc(Cl)cc3)C[C@H](C)N4C(C)=O)cc2)cc1 (stereo partly drawn) [Example 05IB10] | Brd4 (S) (Homo sapiens, UniProt O60885) | Dmax | 100
CCCC(NC(=O)/C(C#N)=C/c1cccc(Br)n1)c1ccc(OCC=NOCC(=O)NCCOCCNC(=O)c2ccc3c(c2)[C@H](Nc2ccc(Cl)cc2)C[C@H](C)N3C(C)=O)cc1 (stereo partly drawn) [Example 05IB1] | Brd4 (S) (Homo sapiens, UniProt O60885) | Dmax | 100
CCCC(NC(=O)/C(C#N)=C/c1nccs1)c1ccc(OCCOCCOCCOCCOCCOCCOCCNC(=O)c2ccc(-c3ccc4c(c3)[C@H](Nc3ccc(Cl)cc3)C[C@H](C)N4C(C)=O)cc2)cc1 (stereo partly drawn) [Example 05IB9] | Brd4 (S) (Homo sapiens, UniProt O60885) | Dmax | 100
CCCC(NC(=O)/C(C#N)=C/c1cccc(Br)n1)c1ccc(OCC=NOCC(=O)NCCOCCOCCOCCOCCOCCNC(=O)c2ccc3c(c2)[C@H](Nc2ccc(Cl)cc2)C[C@H](C)N3C(C)=O)cc1 (stereo partly drawn) [Example 05IB3] | Brd4 (S) (Homo sapiens, UniProt O60885) | Dmax | 100
CCCC(NC(=O)/C(C#N)=C/c1cccc(Br)n1)c1ccc(OCC=NOCC(=O)NCCOCCOCCOCCNC(=O)c2ccc3c(c2)[C@H](Nc2ccc(Cl)cc2)C[C@H](C)N3C(C)=O)cc1 (stereo partly drawn) [Example 05IB2] | Brd4 (S) (Homo sapiens, UniProt O60885) | Dmax | 67

---

system_tested: Brd4 (S) (Homo sapiens, UniProt O60885)
Construct: endogenous in cells; host or cells: HEK293, HeLa
test_description: Concentration-dependent BET degradation, immunoblot, HEK293 cells
Type: cell-based
settings: 6 h treatment, 1 nM-10 μM, read-out: Dmax (%) maximum degradation observed
We begin with a simple list: items and their reported Dmax.

molecule | Dmax
CCCC(NC(=O)/C(C#N)=C/c1cccc(Br)n1)c1ccc(OCC=NOCC(=O)NCCOCCOCCOCCOCCOCCNC(=O)c2ccc3c(c2)[C@H](Nc2ccc(Cl)cc2)C[C@H](C)N3C(C)=O)cc1 (stereo partly drawn) | ≥ 71%
CCCC(NC(=O)/C=C/c1cccc(Br)n1)c1ccc(OCCOCCOCCOCCOCCOCCOCCNC(=O)c2ccc(-c3ccc4c(c3)[C@H](Nc3ccc(Cl)cc3)C[C@H](C)N4C(C)=O)cc2)cc1 (stereo partly drawn) | 26 to 50%
CCCC(NC(=O)/C(C#N)=C/c1nccs1)c1ccc(OCCOCCOCCOCCOCCOCCOCCNC(=O)c2ccc(-c3ccc4c(c3)[C@H](Nc3ccc(Cl)cc3)C[C@H](C)N4C(C)=O)cc2)cc1 (stereo partly drawn) | ≥ 71%

---

system_tested: Brd2 (Homo sapiens)
Sequence (P25440 whole entry): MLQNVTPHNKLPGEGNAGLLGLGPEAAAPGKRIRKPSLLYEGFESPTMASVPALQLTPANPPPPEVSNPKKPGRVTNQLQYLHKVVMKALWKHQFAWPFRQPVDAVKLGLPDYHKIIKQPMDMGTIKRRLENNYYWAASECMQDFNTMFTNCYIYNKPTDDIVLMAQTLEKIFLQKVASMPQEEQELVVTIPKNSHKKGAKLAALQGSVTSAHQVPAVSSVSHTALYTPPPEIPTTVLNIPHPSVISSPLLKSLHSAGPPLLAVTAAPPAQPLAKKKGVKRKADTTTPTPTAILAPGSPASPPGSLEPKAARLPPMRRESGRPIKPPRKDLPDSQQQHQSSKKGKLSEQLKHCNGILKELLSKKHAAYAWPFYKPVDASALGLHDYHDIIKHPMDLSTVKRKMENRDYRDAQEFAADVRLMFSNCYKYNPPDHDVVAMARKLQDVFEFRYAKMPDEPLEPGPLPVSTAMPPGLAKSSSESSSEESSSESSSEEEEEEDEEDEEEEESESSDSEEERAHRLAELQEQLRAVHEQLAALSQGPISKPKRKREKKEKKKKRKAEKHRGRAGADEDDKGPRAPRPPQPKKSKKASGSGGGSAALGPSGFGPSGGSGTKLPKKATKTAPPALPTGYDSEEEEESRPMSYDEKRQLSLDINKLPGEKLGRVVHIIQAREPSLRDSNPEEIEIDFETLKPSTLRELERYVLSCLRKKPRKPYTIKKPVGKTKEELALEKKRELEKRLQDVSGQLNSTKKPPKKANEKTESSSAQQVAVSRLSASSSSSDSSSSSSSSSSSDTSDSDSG
test_description: Concentration-dependent BET degradation, immunoblot, HeLa cells
Assay type: cell-based
Set-up: endogenous in cells; host or cells: HeLa
settings: Brd2, 6 h treatment, 1 nM-10 μM
Description: Cell culture. HeLa (CCL-2) and HEK293 (CRL-1573) cells were purchased from ATCC and cultured in DMEM medium (Gibco) supplemented with 10% FBS, 100 μg/mL penicillin/streptomycin and L-glutamine. […] Immunoblotting. proteins were separated by SDS-PAGE on NuPage 4-12% Bis-Tris gels, followed by transfer to Amersham Protran 0.45 NC nitrocellulose membrane (GE Healthcare) using wet transfer. […] Degradation data was plotted and analysed using Prism (Graphpad, version 8). […]
We begin with a simple list: items and their reported DC50.
assay_readout: DC50

compound | value_measured
CCCC(NC(=O)/C(C#N)=C/c1cccc(Br)n1)c1ccc(OCC=NOCC(=O)NCCOCCNC(=O)c2ccc3c(c2)[C@H](Nc2ccc(Cl)cc2)C[C@H](C)N3C(C)=O)cc1 (stereo partly drawn) | 51 to 500 nM
CCCC(NC(=O)/C(C#N)=C/c1cccc(Br)n1)c1ccc(OCC=NOCC(=O)NCCOCCOCCOCCOCCOCCNC(=O)c2ccc3c(c2)[C@H](Nc2ccc(Cl)cc2)C[C@H](C)N3C(C)=O)cc1 (stereo partly drawn) | 51 to 500 nM
CCCC(NC(=O)/C(C#N)=C/c1nccs1)c1ccc(OCCOCCOCCOCCOCCOCCOCCNC(=O)c2ccc(-c3ccc4c(c3)[C@H](Nc3ccc(Cl)cc3)C[C@H](C)N4C(C)=O)cc2)cc1 (stereo partly drawn) | 51 to 500 nM
CCCC(NC(=O)/C(C#N)=C/c1cccc(Br)n1)c1ccc(OCCOCCOCCOCCOCCOCCOCCNC(=O)c2ccc(-c3ccc4c(c3)[C@H](Nc3ccc(Cl)cc3)C[C@H](C)N4C(C)=O)cc2)cc1 (stereo partly drawn) | ≤ 50 nM
CCCC(NC(=O)/C(C#N)=C/c1nc(Cl)ccc1Cl)c1ccc(OCCOCCOCCOCCOCCOCCOCCNC(=O)c2ccc(-c3ccc4c(c3)[C@H](Nc3ccc(Cl)cc3)C[C@H](C)N4C(C)=O)cc2)cc1 (stereo partly drawn) | ≤ 50 nM
CCCC(NC(=O)/C(C#N)=C/c1cccc(Br)n1)c1ccc(OCC=NOCC(=O)NCCOCCOCCOCCNC(=O)c2ccc3c(c2)[C@H](Nc2ccc(Cl)cc2)C[C@H](C)N3C(C)=O)cc1 (stereo partly drawn) | 51 to 500 nM

---

system_tested: Brd4 (S) (Homo sapiens)
Construct: endogenous in cells; host or cells: HEK293, HeLa
test_description: Concentration-dependent BET degradation, immunoblot, HeLa cells
Assay type: cell-based
settings: 6 h treatment, 1 nM-10 μM

compound | system_tested | DC50
CCCC(NC(=O)/C(C#N)=C/c1cccc(Br)n1)c1ccc(OCC=NOCC(=O)NCCOCCOCCOCCNC(=O)c2ccc3c(c2)[C@H](Nc2ccc(Cl)cc2)C[C@H](C)N3C(C)=O)cc1 (some centres unmarked) [Example 05IB2] | Brd4 (S) (Homo sapiens) | 0.051 to 0.5 µM
CCCC(NC(=O)/C(C#N)=C/c1cccc(Br)n1)c1ccc(OCC=NOCC(=O)NCCOCCNC(=O)c2ccc3c(c2)[C@H](Nc2ccc(Cl)cc2)C[C@H](C)N3C(C)=O)cc1 (some centres unmarked) [Example 05IB1] | Brd4 (S) (Homo sapiens) | ≤ 0.05 µM
CCCC(NC(=O)/C(C#N)=C/c1nc(Cl)ccc1Cl)c1ccc(OCCOCCOCCOCCOCCOCCOCCNC(=O)c2ccc(-c3ccc4c(c3)[C@H](Nc3ccc(Cl)cc3)C[C@H](C)N4C(C)=O)cc2)cc1 (some centres unmarked) [Example 05IB10] | Brd4 (S) (Homo sapiens) | 0.051 to 0.5 µM
CCCC(NC(=O)/C(C#N)=C/c1nccs1)c1ccc(OCCOCCOCCOCCOCCOCCOCCNC(=O)c2ccc(-c3ccc4c(c3)[C@H](Nc3ccc(Cl)cc3)C[C@H](C)N4C(C)=O)cc2)cc1 (some centres unmarked) [Example 05IB9] | Brd4 (S) (Homo sapiens) | ≤ 0.05 µM
CCCC(NC(=O)/C(C#N)=C/c1cccc(Br)n1)c1ccc(OCC=NOCC(=O)NCCOCCOCCOCCOCCOCCNC(=O)c2ccc3c(c2)[C@H](Nc2ccc(Cl)cc2)C[C@H](C)N3C(C)=O)cc1 (some centres unmarked) [Example 05IB3] | Brd4 (S) (Homo sapiens) | ≤ 0.05 µM
